tested on: NCI/ADR-RES ovarian; test: NCI tumour cell line growth inhibition, 48 h; in the data active means GI50 below about 0.43 µM; inactive means the rest
Classes used: true (active), false (inactive)

{"COMPOUND": "CC[CH2][Pb]([CH2]CC)([CH2]CC)[O]C(=O)C(F)(F)F", "ASSIGNED CATEGORY": "true"}
{"COMPOUND": "Cc1ccc2c(c1)C(=O)/C(=C/c1ncc([N+](=O)[O-])n1C)O2", "ASSIGNED CATEGORY": "false"}
{"COMPOUND": "O=c1oc2ccc(F)cc2c(=O)n1-c1ccc(F)cc1F", "ASSIGNED CATEGORY": "false"}
{"COMPOUND": "COc1ccc2[nH]c(O)c(/C=c3/cc4c(c(-c5cc(OC)c(OC)c(OC)c5)n3)=Nc3ccccc3-4)c2c1", "ASSIGNED CATEGORY": "false"}
{"COMPOUND": "CSc1ccc(C2=NN(C(C)=O)C(c3cc(C)cs3)C2)cc1 (stereo unspecified)", "ASSIGNED CATEGORY": "false"}
{"COMPOUND": "N#C/C(=C1C=C/C(=N/O)C(Br)=C/1)c1ccccc1", "ASSIGNED CATEGORY": "false"}

----------
test system: U251 CNS; test: NCI tumour cell line growth inhibition, 48 h

{"MOLECULE": "COC(=O)C(=O)C(C(=O)C=C(C)C)C(=O)C(=O)Nc1cc(C(F)(F)F)ccc1Cl (configuration not stated)", "TGI": "> 100 µM"}
{"MOLECULE": "CN1C(=O)N(c2ccccc2)C2(CCN(CC3COc4ccccc4O3)CC2)C1=O (configuration not stated)", "TGI": "> 100 µM"}
{"MOLECULE": "C#CCCCCC#Cc1ccccc1C(=O)OC", "TGI": "> 100 µM"}
{"MOLECULE": "Cc1cc(N(CCC#N)CCC#N)ccc1/C=N/NC(=O)c1cc(Cl)ccc1O", "TGI": "> 100 µM"}
{"MOLECULE": "COCCOCOc1ccc(OCc2ccccc2)cc1", "TGI": "> 100 µM"}
{"MOLECULE": "CCCCNC1=C(C(=O)OCC)C(=O)CO1", "TGI": "> 100 µM"}
{"MOLECULE": "CC(C)(N=NC(C)(C)C(=O)NCCO)C(=O)NCCO", "TGI": "> 100 µM"}
{"MOLECULE": "C[N+]1=C2[B-](C(C)(C)C)=[N+](C(C)(C)C)[B-]2(C(C)(C)C)[N+](C)=C2[B-](C(C)(C)C)=[N+](C(C)(C)C)[B-]21C(C)(C)C (configuration not stated)", "TGI": "> 100 µM"}
{"MOLECULE": "N.N.N.O=[N+]([O-])[O-].O=[N+]([O-])[O-].O=[N+]([O-])[O-].O=[N+]([O-])[O-].[Co+3]", "TGI": "> 100 µM"}
{"MOLECULE": "CCCc1cc(=O)c2c(C)c3[nH]c4ccc(Cl)cc4c3c(C)c2[nH]1", "TGI": "3.65 µM"}
{"MOLECULE": "CCOC(=O)c1csc(NC(=O)CCN(CC)CC)n1", "TGI": "> 100 µM"}
{"MOLECULE": "COC(=O)CC(C(C(=O)OC)C(=O)OC)N1C(=O)OCC1c1ccccc1 (configuration not stated)", "TGI": "> 100 µM"}
{"MOLECULE": "S=C(N/N=C\\C=N/NC(=S)N1CCCCC1)N1CCCCC1", "TGI": "> 100 µM"}
{"MOLECULE": "CCCCC/C(C=C(C#N)C#N)=C/c1ccccc1", "TGI": "14.1 µM"}
{"MOLECULE": "Cc1nc(-c2ccc([N+](=O)[O-])cc2)cn2c1nc1ccccc12", "TGI": "> 100 µM"}
{"MOLECULE": "COc1ccc(-c2cc(-c3ccco3)c(C#N)c(=S)n2C2OC(COC(C)=O)C(OC(C)=O)C(OC(C)=O)C2OC(C)=O)cc1 (configuration not stated)", "TGI": "17.8 µM"}
{"MOLECULE": "O=C(O)Cn1ccc(=O)c2ccc([N+](=O)[O-])cc21", "TGI": "> 100 µM"}
{"MOLECULE": "N#CC1(Cc2ccc(N)cc2)c2ccccc2C=CN1C(=O)c1ccccc1 (configuration not stated)", "TGI": "> 100 µM"}
{"MOLECULE": "COc1cccc(-c2cc(=O)c3ccccc3o2)c1N", "TGI": "> 100 µM"}
{"MOLECULE": "CN1CCN(Cc2ccc(NC(=O)c3cncc(C#Cc4cnc(N)c5ccc(C#N)cc45)c3)cc2C(F)(F)F)CC1", "TGI": "0.846 µM"}
{"MOLECULE": "CCN1c2ccccc2-n2c(C)nnc2-c2c1n[nH]c2-c1ccccc1", "TGI": "46.8 µM"}
{"MOLECULE": "Cc1c(F)c(N)c2c(=O)cc(-c3ccc(NC(=O)CN(C)C)c(F)c3)oc2c1F", "TGI": "> 81.1 µM"}
{"MOLECULE": "CC1=C(C(=O)Nc2ccc3[nH]ncc3c2)C(c2ccc3ccccc3c2)CC(=O)N1 (configuration not stated)", "TGI": "> 25 µM"}
{"MOLECULE": "CC(C)c1ccc2[nH]c(O)c(-c3[nH]c4ccccc4c3N=O)c2c1", "TGI": "19.9 µM"}
{"MOLECULE": "O=C(CN1c2ccccc2Sc2ccccc21)N1CCNCC1", "TGI": "> 100 µM"}
{"MOLECULE": "Cc1nnc2n1N=C(c1cc(F)c(Cl)cc1Cl)/C(=C/c1ccc(Cl)cc1)S2", "TGI": "38.5 µM"}
{"MOLECULE": "COc1ccc2[nH]c3c(C)c4c(c(C)c3c2c1)CN(C)CC4", "TGI": "32 µM"}
